# measured.on: PCSK9 (Homo sapiens, UniProt Q8NBP7, G670E/V474I)
# Sequence (Q8NBP7 with tags, fused parts or gaps V474I/G670E): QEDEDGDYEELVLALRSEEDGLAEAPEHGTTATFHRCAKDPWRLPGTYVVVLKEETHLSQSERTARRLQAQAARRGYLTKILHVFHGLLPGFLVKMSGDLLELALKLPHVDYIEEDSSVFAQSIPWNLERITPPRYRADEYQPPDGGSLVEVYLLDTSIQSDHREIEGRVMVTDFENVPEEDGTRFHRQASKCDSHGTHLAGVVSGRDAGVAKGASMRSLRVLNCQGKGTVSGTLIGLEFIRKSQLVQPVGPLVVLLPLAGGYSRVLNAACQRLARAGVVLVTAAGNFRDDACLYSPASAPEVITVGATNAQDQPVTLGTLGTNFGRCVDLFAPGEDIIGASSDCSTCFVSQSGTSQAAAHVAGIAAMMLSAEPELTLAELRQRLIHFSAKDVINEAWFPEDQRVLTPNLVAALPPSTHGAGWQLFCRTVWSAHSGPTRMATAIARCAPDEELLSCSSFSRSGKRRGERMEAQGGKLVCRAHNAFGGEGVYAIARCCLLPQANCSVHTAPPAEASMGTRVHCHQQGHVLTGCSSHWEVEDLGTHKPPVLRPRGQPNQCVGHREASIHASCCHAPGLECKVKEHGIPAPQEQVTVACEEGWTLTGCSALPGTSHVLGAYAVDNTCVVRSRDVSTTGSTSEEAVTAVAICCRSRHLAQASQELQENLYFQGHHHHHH
# measurement.protocol: biochemical
pIC50: −log10 of the molar value.
pIC50 vs 8: at or above is 1 (yes), below is 0 (no).

Could you verify whether the entry CP(C)(=O)c1cnc2[nH]c(N[C@H]3CC[C@H](Nc4ccc(-n5ccccc5=O)cn4)C3)nc2c1 [Example 58] shows pIC50 of no less than 8?
0 (no)

Is it the case that Cc1ccc2nc(N[C@H]3CC[C@H](Nc4ccc(-n5ccccc5=O)cn4)C3)sc2c1 [Example 8] has pIC50 reaching or exceeding 8?
0 (no)

Item N#Cc1ccc(=O)n(-c2ccc(N[C@H]3CC[C@H](Nc4nc5cccnc5o4)C3)nc2)c1 [Example 17] with pIC50 of 8 or above?
0 (no)

Is reported pIC50 greater than or equal to 8 here: Cn1c(=O)n(-c2ccc(N[C@H]3CC[C@H](Nc4nc5cccnc5[nH]4)C3)nc2)c2ccccc21 [Example 36]
1 (yes)

Could you verify whether the entry Cc1ncc(-c2ccc(=O)n(-c3ccc(N[C@H]4CC[C@H](Nc5nc6cccnc6[nH]5)C4)nc3)c2)cn1 [Example 53] shows pIC50 of no less than 8?
0 (no)

Please tell me: is the compound O=c1ccccn1-c1ccc(N[C@H]2CC[C@H](Nc3nc4cc(OC(F)(F)F)cnc4[nH]3)C2)nc1 [Example 51] at or over 8 in terms of pIC50?
1 (yes)

Record O=c1ccccn1-c1ccc(N[C@H]2CC[C@H](Nc3nc4ccc(Br)cc4s3)C2)nc1 [Example 6] ; criterion: pIC50 no lower than 8. Met?
0 (no)

Decide: is the reported value of pIC50 for O=c1ccncn1-c1ccc(N[C@H]2CC[C@H](Nc3nc4cccnc4[nH]3)C2)nc1 [Example 29] equal to or greater than 8?
1 (yes)

Answer whether pIC50 of O=c1ccccn1-c1ccc(N[C@H]2CC[C@H](Nc3nc4ccccc4s3)C2)nc1 [Example 7] is greater than or equal to 8.
0 (no)

API: above_or_equal(metric=pIC50, cutoff=8) for item O=c1ccccn1-c1ccc(N[C@H]2CC[C@H](Nc3nc4cc(C(F)(F)F)cnc4[nH]3)C2)nc1 [Example 62]
1 (yes)

Item O=c1ccccn1-c1ccc(N[C@H]2CC[C@H](Nc3nc4cc(Br)cnc4s3)C2)nc1 [Compound 87] with pIC50 of 8 or above?
1 (yes)

Confirm if pIC50 reported for the compound O=c1c(C(F)(F)F)cccn1-c1ccc(N[C@H]2CC[C@H](Nc3nc4cccnc4[nH]3)C2)nc1 [Example 64] is 8 or above.
1 (yes)

Could you tell me if the measured pIC50 of Fc1cccc(OC(F)F)c1-c1ccc(N[C@H]2CC[C@H](Nc3nc4cccnc4[nH]3)C2)nc1 [Example 32] reaches 8 or more?
0 (no)

Form field: pIC50 at least 8? Entry: O=c1c(Cl)cccn1-c1ccc(N[C@H]2CC[C@H](Nc3nc4cccnc4[nH]3)C2)nc1 [Example 42]
1 (yes)

Check this compound for pIC50 at or above 8: O=c1c2sccc2ccn1-c1ccc(N[C@H]2CC[C@H](Nc3nc4cccnc4s3)C2)nc1 [Example 76]
1 (yes)

Hi, just wondering whether COc1ccccc1-c1ccc(N[C@H]2CC[C@H](Nc3nc4cccnc4[nH]3)C2)nc1 [Example 66] shows pIC50 of 8 or higher.
0 (no)

Tell me whether pIC50 is at least 8 here: O=c1ccccn1-c1ccc(N[C@H]2CC[C@H](Nc3nc4cccnc4o3)C2)nc1 [Example 11]
0 (no)

Threshold query (pIC50 >= 8) on O=c1ccc(-c2nn[nH]n2)cn1-c1ccc(N[C@H]2CC[C@H](Nc3nc4cccnc4[nH]3)C2)nc1 [Example 86]
1 (yes)

Threshold query (pIC50 >= 8) on COc1ccc(=O)n(-c2ccc(N[C@H]3CC[C@H](Nc4nc5cccnc5s4)C3)nc2)c1 [Example 25]
1 (yes)

Is the recorded value of pIC50 equal to or greater than 8 for this compound? O=c1ccccn1-c1ccc(N[C@H]2CC[C@H](Nc3nc4cccnc4[nH]3)C2)nc1 [Example 46]
1 (yes)

API: above_or_equal(metric=pIC50, cutoff=8) for item COc1cccn(-c2ccc(N[C@H]3CC[C@H](Nc4nc5cccnc5s4)C3)nc2)c1=O [Example 21]
1 (yes)

Given Fc1cccnc1-c1ccc(N[C@H]2CC[C@H](Nc3nc4cccnc4[nH]3)C2)nc1 [Example 30] , state whether its pIC50 is at least 8.
0 (no)

Could you please find out whether O=c1ccccn1-c1ccc(N[C@H]2CC[C@H](Nc3nc4ncccc4o3)C2)nc1 [Compound 89] has pIC50 that meets 8 or exceeds it?
0 (no)

# check: pIC50 of CCc1cnc2[nH]c(N[C@H]3CC[C@H](Nc4ccc(-n5ccccc5=O)cn4)C3)nc2c1 [Example 56] is greater than or equal to 8
1 (yes)

Could you verify whether the entry Fc1cccc(OC(F)(F)F)c1-c1ccc(N[C@H]2CC[C@H](Nc3nc4cccnc4[nH]3)C2)nc1 [Example 70] shows pIC50 of no less than 8?
0 (no)
